Biological target: T1, Axl (Homo sapiens, UniProt P30530)
T1 sequence (P30530 26-451 limits assumed): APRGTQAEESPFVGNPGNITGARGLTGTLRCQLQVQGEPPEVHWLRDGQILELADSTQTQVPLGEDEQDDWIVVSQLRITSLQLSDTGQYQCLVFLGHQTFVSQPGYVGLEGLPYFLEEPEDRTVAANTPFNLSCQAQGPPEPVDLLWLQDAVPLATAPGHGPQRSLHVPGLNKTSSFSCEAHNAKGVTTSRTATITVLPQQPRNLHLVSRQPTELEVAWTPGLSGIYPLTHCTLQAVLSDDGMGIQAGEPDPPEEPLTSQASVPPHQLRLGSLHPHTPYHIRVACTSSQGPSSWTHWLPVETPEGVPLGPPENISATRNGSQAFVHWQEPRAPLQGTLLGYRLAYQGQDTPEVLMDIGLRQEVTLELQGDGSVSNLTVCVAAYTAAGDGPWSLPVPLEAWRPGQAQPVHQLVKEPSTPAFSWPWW
Assay: Affinity ELISA of CPE mutant antibodies for binding to Axl at pH 6.0 over pH 7.4
Conditions: heavy chain variable region mutants; 1:9 dilution
Lab note: compare Affinity ELISA CPE mutant ratio (1:9, pH 6.0/7.4) against 2. Equal or greater, write Y. Smaller, write N.

1. HC-S059T (antibody, V domains shown) VH: EVQLVQSGAEVKKPGATVKISCKVSGYSFTGHTMNWIRQPPGKGLEWIGLIKPSNGGTTYNQKFKGRVTISADKSISTAYLQWSSLKASDTAMYYCAHGHYESYFAMDYWGQGTLVTVSS VL: DIQMTQSPSSLSASVGDRVTITCKASQDVSSAVAWYQQKPGQAPRLLIYWASTRHTGVPSRFSGSGSGTEFTLTISSLQPDDFATYYCQEHFSTPLTFGQGTKVEIK = N
2. HC-A106G (antibody, V domains shown) VH: EVQLVQSGAEVKKPGATVKISCKVSGYSFTGHTMNWIRQPPGKGLEWIGLIKPSNGGTSYNQKFKGRVTISADKSISTAYLQWSSLKASDTAMYYCAHGHYESYFGMDYWGQGTLVTVSS VL: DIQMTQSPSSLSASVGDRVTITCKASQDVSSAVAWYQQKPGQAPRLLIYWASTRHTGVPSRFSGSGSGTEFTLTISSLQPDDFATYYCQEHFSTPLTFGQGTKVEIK = Y
3. HC-W110P (antibody, V domains shown) VH: EVQLVQSGAEVKKPGATVKISCKVSGYSFTGHTMNWIRQPPGKGLEWIGLIKPSNGGTSYNQKFKGRVTISADKSISTAYLQWSSLKASDTAMYYCAHGHYESYFAMDYPGQGTLVTVSS VL: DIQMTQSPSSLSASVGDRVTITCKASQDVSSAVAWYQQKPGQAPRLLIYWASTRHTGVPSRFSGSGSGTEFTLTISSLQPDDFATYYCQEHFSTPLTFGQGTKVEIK = Y
4. HC-M107E (antibody, V domains shown) VH: EVQLVQSGAEVKKPGATVKISCKVSGYSFTGHTMNWIRQPPGKGLEWIGLIKPSNGGTSYNQKFKGRVTISADKSISTAYLQWSSLKASDTAMYYCAHGHYESYFAEDYWGQGTLVTVSS VL: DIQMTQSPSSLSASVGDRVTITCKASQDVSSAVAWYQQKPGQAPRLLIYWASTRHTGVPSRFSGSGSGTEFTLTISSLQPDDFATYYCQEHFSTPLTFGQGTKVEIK = N
